Catalogue of growth AUC readings, one per entry.
Tested on: Lactobacillus gasseri
Test: growth AUC relative to DMSO control (median of replicates) (fraction); higher = more growth (less inhibition), active = hit call of the paper
Conditions: 20 µM; 24 h

Examples with answers:
COc1cc(OC)nc(NC(=O)[N-]S(=O)(=O)c2ncccc2OCC(F)(F)F)n1.[Na+] | 0.9 (inactive)
Cc1cnc2c(C(=O)O)c(Cl)ccc2c1 | 0.952 (inactive)
CCOP(=S)(OCC)Oc1cnc2ccccc2n1 | 0.966 (inactive)

Measured growth AUC for this entry CCCCOC(=O)[C@@H](C)Oc1ccc(Oc2ccc(C#N)cc2F)cc1 on Lactobacillus gasseri: 0.87 (inactive)

Measured growth AUC for this entry C1=Cc2cccc3cccc1c23 on Lactobacillus gasseri: 0.975 (inactive)

Measured growth AUC for this entry COP1(=S)OCc2ccccc2O1 (configuration not stated) on Lactobacillus gasseri: 0.945 (inactive)
